assay target: TAS2R1 (Homo sapiens, UniProt Q9NYW7)
Sequence (Q9NYW7 whole entry): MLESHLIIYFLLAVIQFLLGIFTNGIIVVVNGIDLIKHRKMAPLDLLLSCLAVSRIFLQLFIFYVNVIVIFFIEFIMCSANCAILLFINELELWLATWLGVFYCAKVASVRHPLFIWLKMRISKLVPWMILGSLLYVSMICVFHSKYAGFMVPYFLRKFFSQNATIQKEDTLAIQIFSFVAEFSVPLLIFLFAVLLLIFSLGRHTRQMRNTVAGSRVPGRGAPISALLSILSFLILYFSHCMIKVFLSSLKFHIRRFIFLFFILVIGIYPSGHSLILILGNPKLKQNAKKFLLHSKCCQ
test: Calcium mobilization assay, HEK293T-Gα16gust44 cells expressing TAS2R1
assay setup: maximal concentration tested: sucralose 100 mM, neotame 30 µM, Ace-K 300 mM, RebA 4 mM, RebM 4 mM, mogroside V 5 mM, erythritol 200 mM, D-allulose 500 mM, thaumatin 100 mM
parameter: Response of TAS2R1

[
  {
    "compound": "OC[C@@H](O)[C@@H](O)CO [Erythritol, erythritol]",
    "parameter": "Response of TAS2R1",
    "endpoint value": "−"
  },
  {
    "compound": "OC[C@H]1O[C@H](O[C@]2(CCl)O[C@H](CCl)[C@@H](O)[C@@H]2O)[C@H](O)[C@@H](O)[C@H]1Cl [Sucralose, sucralose]",
    "parameter": "Response of TAS2R1",
    "endpoint value": "#^a"
  },
  {
    "compound": "C[C@H](CC[C@@H](O[C@@H]1O[C@H](CO[C@@H]2O[C@H](CO)[C@@H](O)[C@H](O)[C@H]2O)[C@@H](O)[C@H](O)[C@H]1O[C@@H]1O[C@H](CO)[C@@H](O)[C@H](O)[C@H]1O)C(C)(C)O)[C@H]1CC[C@@]2(C)[C@@H]3CC=C4[C@@H](CC[C@H](O[C@@H]5O[C@H](CO[C@@H]6O[C@H](CO)[C@@H](O)[C@H](O)[C@H]6O)[C@@H](O)[C@H](O)[C@H]5O)C4(C)C)[C@]3(C)[C@H](O)C[C@]12C [Mogroside V, mogroside V]",
    "parameter": "Response of TAS2R1",
    "endpoint value": "−"
  }
]

---

assay target: TAS2R46 (Homo sapiens)
Sequence (P59540 1-309): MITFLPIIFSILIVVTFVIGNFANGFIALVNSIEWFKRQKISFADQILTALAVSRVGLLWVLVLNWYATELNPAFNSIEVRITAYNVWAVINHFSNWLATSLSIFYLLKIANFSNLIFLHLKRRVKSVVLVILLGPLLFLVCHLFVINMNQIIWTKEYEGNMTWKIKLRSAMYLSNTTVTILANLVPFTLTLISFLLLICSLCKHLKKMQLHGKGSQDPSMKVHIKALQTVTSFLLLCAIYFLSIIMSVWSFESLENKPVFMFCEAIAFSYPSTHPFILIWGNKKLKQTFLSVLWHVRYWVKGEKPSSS
test: Calcium mobilization assay, HEK293T-Gα16gust44 cells expressing TAS2R46
assay setup: maximal concentration tested: sucralose 100 mM, neotame 30 µM, Ace-K 300 mM, RebA 4 mM, RebM 4 mM, mogroside V 5 mM, erythritol 200 mM, D-allulose 500 mM, thaumatin 100 mM
parameter: Response of TAS2R46

[
  {
    "smiles text": "COC(=O)[C@H](Cc1ccccc1)NC(=O)[C@H](CC(=O)O)NCCC(C)(C)C",
    "endpoint value": "−"
  },
  {
    "smiles text": "CC1=CC(=O)NS(=O)(=O)O1",
    "endpoint value": "−"
  },
  {
    "smiles text": "OC[C@H]1O[C@H](O[C@]2(CCl)O[C@H](CCl)[C@@H](O)[C@@H]2O)[C@H](O)[C@@H](O)[C@H]1Cl",
    "endpoint value": "#^a"
  }
]

---

assay target: TAS1R2/TAS1R3 (Homo sapiens, UniProt Q7RTX0+Q8TE23)
Sequence (Q8TE23 20-839): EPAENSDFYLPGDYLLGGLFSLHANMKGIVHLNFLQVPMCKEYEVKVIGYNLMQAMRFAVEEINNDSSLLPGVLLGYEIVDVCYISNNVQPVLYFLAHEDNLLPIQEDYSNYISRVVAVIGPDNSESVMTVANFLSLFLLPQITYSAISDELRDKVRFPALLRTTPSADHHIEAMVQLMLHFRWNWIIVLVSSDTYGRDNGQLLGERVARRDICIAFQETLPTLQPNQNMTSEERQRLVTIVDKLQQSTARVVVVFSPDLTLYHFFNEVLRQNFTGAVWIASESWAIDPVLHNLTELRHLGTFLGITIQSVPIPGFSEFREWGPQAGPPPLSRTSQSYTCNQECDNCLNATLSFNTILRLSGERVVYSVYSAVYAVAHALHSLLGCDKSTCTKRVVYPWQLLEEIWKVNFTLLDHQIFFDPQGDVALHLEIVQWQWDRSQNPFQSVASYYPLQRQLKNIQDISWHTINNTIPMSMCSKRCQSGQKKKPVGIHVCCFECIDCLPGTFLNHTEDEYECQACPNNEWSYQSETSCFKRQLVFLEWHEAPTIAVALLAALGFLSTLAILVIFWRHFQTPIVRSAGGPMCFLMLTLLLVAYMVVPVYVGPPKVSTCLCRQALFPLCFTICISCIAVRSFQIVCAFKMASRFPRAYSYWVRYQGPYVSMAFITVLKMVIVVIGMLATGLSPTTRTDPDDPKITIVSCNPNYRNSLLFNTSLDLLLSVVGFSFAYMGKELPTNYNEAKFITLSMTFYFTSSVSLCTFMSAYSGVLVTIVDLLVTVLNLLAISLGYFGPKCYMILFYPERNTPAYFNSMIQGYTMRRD
Sequence (Q7RTX0 21-852): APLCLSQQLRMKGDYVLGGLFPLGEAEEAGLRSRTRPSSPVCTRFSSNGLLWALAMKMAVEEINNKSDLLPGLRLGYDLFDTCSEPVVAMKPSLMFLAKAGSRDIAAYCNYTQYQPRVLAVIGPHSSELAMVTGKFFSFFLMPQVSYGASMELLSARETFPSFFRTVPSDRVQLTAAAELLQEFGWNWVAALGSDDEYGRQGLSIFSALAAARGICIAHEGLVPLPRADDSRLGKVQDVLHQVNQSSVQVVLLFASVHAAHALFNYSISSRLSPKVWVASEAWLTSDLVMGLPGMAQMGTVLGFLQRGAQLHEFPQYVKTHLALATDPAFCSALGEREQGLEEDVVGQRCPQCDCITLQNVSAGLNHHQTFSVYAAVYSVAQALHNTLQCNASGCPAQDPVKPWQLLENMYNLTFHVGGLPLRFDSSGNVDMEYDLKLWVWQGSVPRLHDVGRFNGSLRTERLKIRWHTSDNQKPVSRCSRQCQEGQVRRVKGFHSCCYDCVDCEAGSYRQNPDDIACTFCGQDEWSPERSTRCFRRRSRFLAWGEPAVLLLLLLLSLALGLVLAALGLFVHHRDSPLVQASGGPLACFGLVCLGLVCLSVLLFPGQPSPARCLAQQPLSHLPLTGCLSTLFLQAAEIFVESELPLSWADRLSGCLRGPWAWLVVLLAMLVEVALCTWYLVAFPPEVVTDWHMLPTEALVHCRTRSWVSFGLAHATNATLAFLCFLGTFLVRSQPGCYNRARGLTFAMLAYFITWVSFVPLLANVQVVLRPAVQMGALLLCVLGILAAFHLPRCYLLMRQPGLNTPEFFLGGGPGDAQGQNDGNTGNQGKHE
test: Calcium mobilization assay, HEK293T-Gα16gust44 cells expressing the sweet taste receptor
assay setup: read-out: EC50 value; sweet compound alone
parameter: EC50 (µM)
Quick note: give the figure in µM, leave out the unit.

[
  {
    "molecule": "C[C@H](CC[C@@H](O[C@@H]1O[C@H](CO[C@@H]2O[C@H](CO)[C@@H](O)[C@H](O)[C@H]2O)[C@@H](O)[C@H](O)[C@H]1O[C@@H]1O[C@H](CO)[C@@H](O)[C@H](O)[C@H]1O)C(C)(C)O)[C@H]1CC[C@@]2(C)[C@@H]3CC=C4[C@@H](CC[C@H](O[C@@H]5O[C@H](CO[C@@H]6O[C@H](CO)[C@@H](O)[C@H](O)[C@H]6O)[C@@H](O)[C@H](O)[C@H]5O)C4(C)C)[C@]3(C)[C@H](O)C[C@]12C [Mogroside V, mogroside V]",
    "parameter": "EC50",
    "endpoint value": 23
  },
  {
    "molecule": "OC[C@H]1O[C@H](O[C@]2(CCl)O[C@H](CCl)[C@@H](O)[C@@H]2O)[C@H](O)[C@@H](O)[C@H]1Cl",
    "parameter": "EC50",
    "endpoint value": 78
  },
  {
    "molecule": "COC(=O)[C@H](Cc1ccccc1)NC(=O)[C@H](CC(=O)O)NCCC(C)(C)C",
    "parameter": "EC50",
    "endpoint value": 2.26
  }
]

Fill in: EC50 of C=C1C[C@@]23CC[C@H]4[C@@](C)(CCC[C@@]4(C)C(=O)O[C@@H]4O[C@H](CO)[C@@H](O)[C@H](O[C@@H]5O[C@H](CO)[C@@H](O)[C@H](O)[C@H]5O)[C@H]4O[C@@H]4O[C@H](CO)[C@@H](O)[C@H](O)[C@H]4O)[C@@H]2CC[C@]1(O[C@@H]1O[C@H](CO)[C@@H](O)[C@H](O[C@@H]2O[C@H](CO)[C@@H](O)[C@H](O)[C@H]2O)[C@H]1O[C@@H]1O[C@H](CO)[C@@H](O)[C@H](O)[C@H]1O)C3 [RebM, Rebaudioside M] is ___
34
